- TARGET_ENTITY: fully phosphorylated, active Mouse ERK2 protein (Mus musculus (Mouse))
- Sequence (P63085 whole entry): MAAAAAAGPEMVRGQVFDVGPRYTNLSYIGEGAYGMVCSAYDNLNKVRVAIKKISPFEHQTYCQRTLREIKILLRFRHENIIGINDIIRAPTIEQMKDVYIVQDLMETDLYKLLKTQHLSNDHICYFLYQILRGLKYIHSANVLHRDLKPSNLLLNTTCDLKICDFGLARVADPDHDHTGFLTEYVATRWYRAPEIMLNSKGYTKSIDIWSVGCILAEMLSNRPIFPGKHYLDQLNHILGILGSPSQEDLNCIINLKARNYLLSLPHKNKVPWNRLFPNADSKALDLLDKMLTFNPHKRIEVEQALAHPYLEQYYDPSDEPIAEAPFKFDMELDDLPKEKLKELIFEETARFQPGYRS
- MEASUREMENT_NOTES: Active ERK2 Assay (IMAP format)
- Assay type: biochemical
- APPLIED_CONDITIONS: read-out: AERK2 IC50
pIC50: −log10 of the molar value.
Listing of recorded pIC50 by entry.
PARAMETER: pIC50

molecule="COCCOc1ccc(-c2n[nH]c3ccc(NC(=O)[C@]4(OC)CCN(CC(=O)N5CC=C(c6ncc(-c7ncccn7)s6)CC5)C4)cc23)cc1 [Example 765]" result="7.74 to 9.80"
molecule="CS[C@@]1(C(=O)Nc2ccc3[nH]nc(-c4ccnc(C5CC5)c4)c3c2)CCN(CC(=O)N2CC=C(c3ccc(-c4ncccn4)cc3)CC2)C1 [Example 639]" result="7.74 to 9.80"
molecule="CS(=O)(=O)[C@@]1(C(=O)Nc2ccc3[nH]nc(-c4ccnc(C5CC5)c4)c3c2)CCN(CC(=O)N2CC=C(c3ccc(-c4ncccn4)cc3)CC2)C1 [Example 634]" result="7.74 to 9.80"

---

- TARGET_ENTITY: fully phosphorylated, active Mouse ERK2 protein (Mus musculus (Mouse))
- MEASUREMENT_NOTES: Active ERK2 Assay (IMAP format)
- Format: biochemical
- APPLIED_CONDITIONS: read-out: AERK2 IC50
Listing of recorded IC50 by entry.
PARAMETER: IC50

compound=CO[C@@]1(C(=O)Nc2ccc3[nH]nc(-c4ccc(F)cc4)c3c2)CCN(CC(=O)N2CCC(c3ccc(-c4ncccn4)cc3)CC2)C1 result="9.1 nM"
compound="CO[C@@]1(C(=O)Nc2ccc3[nH]nc(-c4ccc(F)cc4)c3c2)CCN(CC(=O)N2CC=C(c3ccc(-c4ncccn4)cc3F)CC2)C1 [Example 825]" result="20 nM"
compound="COCC1(C(=O)Nc2ccc3[nH]nc(-c4ccc(F)cc4)c3c2)CCN(CC(=O)N2CCN(c3ccc(-c4ncccn4)cc3)CC2)C1 (stereo not drawn)" result="0.16 to 18 nM"
compound="Cc1cnc(-c2ccc(N3CCN(C(=O)CN4CCC(C(=O)Nc5ccc6[nH]nc(-c7ccc(F)cc7)c6c5)C4)[C@H](C)C3)cc2)nc1 (stereo partly drawn)" result="0.16 to 18 nM"
compound=COc1cc(C2CCN(C(=O)CN3CC[C@@](OC)(C(=O)Nc4ccc5[nH]nc(-c6ccnc(C7CC7)c6)c5c4)C3)CC2)ccc1-c1ncccn1 result="0.16 to 18 nM"
compound=CO[C@@]1(C(=O)Nc2ccc3[nH]nc(-c4ccc(F)c(NCCO)c4)c3c2)CCN(CC(=O)N2CC=C(c3ccc(-c4ncccn4)cc3)CC2)C1 result="0.16 to 18 nM"
compound=CO[C@@]1(C(=O)Nc2ccc3[nH]nc(-c4ccc(F)cc4)c3c2)CCN(CC(=O)N2CC=C(c3ncc(-c4ncccn4)s3)CC2)C1 result="0.16 to 18 nM"
compound="COCC1(C(=O)Nc2ccc3[nH]nc(-c4ccncc4)c3c2)CCN(CC(=O)N2CC=C(c3nccs3)CC2)C1 (stereo not drawn)" result="0.16 to 18 nM"
compound=COCCOc1ccc(-c2n[nH]c3ccc(NC(=O)[C@]4(OC)CCN(CC(=O)N5CCC(c6ccc(-c7ncccn7)cc6)CC5)C4)cc23)cc1 result="0.16 to 18 nM"
compound=CO[C@@]1(C(=O)Nc2ccc3[nH]nc(-c4cc[n+]([O-])c(C5CC5)c4)c3c2)CCN(CC(=O)N2CCC(c3ccc(-c4ncccn4)cc3)CC2)C1 result="0.16 to 18 nM"
compound=CO[C@@]1(C(=O)Nc2ccc3[nH]nc(-c4ccc(NCCO)cc4)c3c2)CCN(CC(=O)N2CC=C(c3ccc(-c4ncccn4)cc3)CC2)C1 result="0.16 to 18 nM"
compound=CO[C@@]1(C(=O)Nc2ccc3[nH]nc(-c4cn[nH]c4)c3c2)CCN(CC(=O)N2CC=C(c3ccc(-c4ncccn4)cc3)CC2)C1 result="0.16 to 18 nM"
